target: KRAS G12S (Homo sapiens, UniProt P01116+P62937, G12S); assay: Ras-Raf disruption / FRET / MOA assay (BRAF RBD); assay type: biochemical; details: KRAS G12S FRET data IC50, Ras-Raf disruption, with Cyclophilin A
Sequence (P01116 1-169 isoform P01116-2 G12S limits assumed): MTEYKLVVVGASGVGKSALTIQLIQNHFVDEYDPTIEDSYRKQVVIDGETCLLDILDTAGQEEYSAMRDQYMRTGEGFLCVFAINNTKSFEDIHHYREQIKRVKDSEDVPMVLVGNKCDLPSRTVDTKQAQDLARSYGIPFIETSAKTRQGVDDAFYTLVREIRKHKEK
Sequence (P62937 whole entry): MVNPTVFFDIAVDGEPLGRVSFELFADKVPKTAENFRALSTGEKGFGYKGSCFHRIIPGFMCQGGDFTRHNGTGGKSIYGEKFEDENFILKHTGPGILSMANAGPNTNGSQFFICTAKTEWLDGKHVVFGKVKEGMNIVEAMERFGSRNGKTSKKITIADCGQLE
pIC50: −log10 of the molar value.
This listing pairs compounds with measured pIC50.

CCn1c(-c2cccnc2[C@H](C)OC)c2c3cc(ccc31)-c1cc(O)cc(c1)C[C@H](NC(=O)[C@H](C1CCCC1)N(C)C(=O)CN(C)C(=O)[C@@H]1N[C@@H]1C1(F)CC1)C(=O)N1CCC[C@H](N1)C(=O)OCC(C)(C)C2 | 7.00 to 8.00
CCn1c(-c2cccnc2[C@H](C)OC)c2c3cc(ccc31)-c1cc(O)cc(c1)C[C@H](NC(=O)[C@H](C(C)C)N1CC[C@H](NC(=O)[C@H]3CN3)C1=O)C(=O)N1CCC[C@H](N1)C(=O)OCC(C)(C)C2 | 6.00 to 7.00
CCn1c(-c2cccnc2[C@H](C)OC)c2c3cc(ccc31)-c1cc(O)cc(c1)C[C@H](NC(=O)[C@H](C(C)C)N(C)C(=O)CN(C)C(=O)[C@@H]1N[C@H]1COC)C(=O)N1CCC[C@H](N1)C(=O)OCC(C)(C)C2 | 7.00 to 8.00

*Q* // Input: CCn1c(-c2cccnc2[C@H](C)OC)c2c3cc(ccc31)-c1cc(O)cc(c1)C[C@H](NC(=O)[C@H](C1CCCC1)N(C)C(=O)CN(C)C(=O)[C@H]1CN1)C(=O)N1CCC[C@H](N1)C(=O)OCC(C)(C)C2 . Output its pIC50 only.
*A* 7.00 to 8.00
